MEASURED METRIC: melting point

Past entries and their recorded results:
{"MOLECULE": "CCOC(=S)NC1(N=NC(C)(C)C)CCCCC1", "melting point": "57 to 62 °C"}
{"MOLECULE": "CC(C)CC1N=C(c2ccccc2)c2cc(Cl)ccc2NC1=O (stereo not drawn)", "melting point": "213 °C"}
{"MOLECULE": "Cc1cc(C#N)cnc1C(=O)Nc1ccc(F)c([C@]2(C)CO[C@@](C)(C(F)(F)F)C(N)=N2)c1", "melting point": "101 to 102 °C"}
{"MOLECULE": "CCCc1c(OCC(O)CSc2ccc(C(=O)CCC(=O)O)c(F)c2)ccc(C(C)=O)c1O (stereo not drawn)", "melting point": "136 to 137 °C"}
{"MOLECULE": "CCOP(=O)(OCC)C(c1ccc2cc(O)ccc2c1)P(=S)(OCC)OCC (stereo not drawn)", "melting point": "85.5 to 86.5 °C"}

Query: May I ask what melting point has been recorded for CNC(=O)Cn1c(-c2ccc(Cl)cc2)nc2ccc(Cl)nc21 ?
Reply: > 250 °C

Query: Next entry: N#CCc1cccc2c(-c3ccccc3)onc12
Reply: 125 to 138 °C

Query: Now try COc1ccccc1OCCCCCOc1ccc(C#N)cc1 .
Reply: 61 to 63 °C

Query: Then O=C(O)COc1c(Br)cc2oc(C(=O)c3ccccc3)cc2c1Br ?
Reply: 179 to 181 °C

Query: Thanks! And CN1CCN(Cc2ccc(N)cc2C(F)(F)F)CC1 ?
Reply: 119 to 121 °C

Query: Another molecule to look at: COc1cccc(Cl)c1C1C(=O)NC(C)(C(C)C)C1=O (stereo not drawn)
Reply: 172 to 174 °C

Query: Same question for Nc1cc(S(=O)c2ccccc2)ccc1Cl (stereo not drawn) please.
Reply: 89 to 90 °C

---

MEASURED METRIC: melting point

Query: Tell me the measured melting point of COc1ccc(C)cc1NC(=O)Nc1ccc(C2=CCN(C(=O)Nc3ccc(OCCO)cc3C(F)(F)F)CC2)cc1 , please.
Reply: 150 to 153 °C

Query: What about CCOc1cc(C(=O)O)cc(N)c1-c1ccccc1 ?
Reply: 138 °C

Query: Next up: Cc1c(C)c2c(c(C)c1NC(=O)c1ccc(F)cc1)C(c1ccc(C(C)C)cc1)C1(CCN(C)CC1)O2 (stereo not given)
Reply: 271 to 272 °C

Query: Moving on to OCC=Cc1ccsc1
Reply: 58 to 60 °C

Query: And the next one, Cc1cc(-c2ccnc(C(N)=O)c2)n(-c2ccc(F)cc2)n1 ?
Reply: 168 to 170 °C

Query: Let us now turn to CCc1c(-c2ccncn2)ssc1=S
Reply: 100 to 102 °C

---

List of melting point values.

{"COMPOUND": "COc1ccc(-c2cc(=Nc3c(C)cc(C)cc3C)n(C)c(NN)n2)cc1OC", "melting point": "> 300 °C"}
{"COMPOUND": "Cc1cc(SC#N)c(C(C)(C)C)cc1NC(=O)OC(C)(C)C", "melting point": "100 to 111 °C"}
{"COMPOUND": "CC(C)CC(NC(=O)C(CS)CC(F)(F)F)C(=O)O (configuration not stated)", "melting point": "78 to 81 °C"}
{"COMPOUND": "c1cncc(-c2cc(Oc3ccc4cccnc4c3)ncn2)c1", "melting point": "155 to 158 °C"}

Query: I have this compound here, Nc1ccnc(N2CCN(c3nc4cccccc-4n3)CC2)n1 , and I need its recorded melting point.
Reply: 205 to 208 °C

Query: Moving on to C[C@H]1CN(c2ccc([N+](=O)[O-])cc2)[C@@H](C)CN1 (relative stereo)
Reply: 93 to 94 °C

---

melting point overview

{"MOLECULE": "CCCc1c(C(=O)C2CC2)c2ccc(C(N)=O)cc2n1Cc1ccccc1Cl", "VALUE REPORTED": "162 to 164 °C"}
{"MOLECULE": "CC(C)(C)CC1NC(C(=O)NC2CCC(O)CC2)C(c2cccc(Cl)c2F)C12C(=O)Nc1cc(Cl)ccc12 (stereo not given)", "VALUE REPORTED": "176 °C"}
{"MOLECULE": "Cc1cccc(Cl)c1NC(=O)n1nc(Oc2cccc(C(F)(F)F)c2)cc1C", "VALUE REPORTED": "55 to 58 °C"}
{"MOLECULE": "CNC(=O)N(O)CCNC(=O)c1ccc2ccccc2n1", "VALUE REPORTED": "158 to 159 °C"}
{"MOLECULE": "COc1cc(NC(=O)CCCCCN2CCCN(C)CC2)c2nccc(C)c2c1", "VALUE REPORTED": "74 to 77 °C"}

Query: Fill blank: measured melting point of the molecule O=C(O)CC1CCCc2c1n(Cc1ccc(Cl)cc1)c1c(F)cccc21 (stereo not given) is ____.
Reply: 94 to 94.5 °C

Query: // repeat for Cn1cc(-c2ccccc2[N+](=O)[O-])cn1 and report
Reply: 41 to 44 °C

---

Measured melting point values are reported for all entries that follow.

{"COMPOUND": "CCCc1nc(Cl)c(-c2ccc(C)cc2)c(Cl)n1", "melting point": "91 to 93 °C"}
{"COMPOUND": "CCCCCCc1ncc(/C=C(\\Cc2cccs2)C(=O)O)n1Cc1ccccc1Cl", "melting point": "161 to 163 °C"}
{"COMPOUND": "COc1ccc(C(=O)NCc2c(C=O)cc(C)n2CCNC(C)=O)cc1OC", "melting point": "165 to 167 °C"}
{"COMPOUND": "CS(=O)(=O)Nc1ccc2c(c1)C(=O)C1(CC1)O2", "melting point": "152 to 154 °C"}
{"COMPOUND": "NC1=NC(c2ccc(F)cc2)CO1 (stereo unspecified)", "melting point": "116 to 121 °C"}
{"COMPOUND": "CC(C)(C)OC(=O)N1CCN(c2ccc(N3CCN(Cc4ccccc4)CC3)cc2)CC1", "melting point": "132 to 133 °C"}
{"COMPOUND": "CCCCOc1cc2c(Cl)c(C#N)cnc2cc1OCCOC", "melting point": "128 to 130 °C"}
{"COMPOUND": "CS(=O)(=O)c1ccc(-c2cnn(-c3ccc(F)c(F)c3)c(=O)c2-c2cccc(F)c2)cc1", "melting point": "182 to 185 °C"}
{"COMPOUND": "OC1(c2ccccn2)CCNCC1", "melting point": "128 to 132 °C"}
{"COMPOUND": "CCOC(=O)C(=O)CC(=O)c1cn(Cc2ccc(OC)cc2)c2ccccc2c1=O", "melting point": "154 to 156 °C"}

Query: Which melting point reading was recorded for the compound O=C(c1ccccc1)N1N=CCC1c1ccccc1 (stereo unspecified) ?
Reply: 105 to 106 °C

---

# melting point per entry

{"MOLECULE": "O=C(NCCO)c1cccc(-c2ccc3c(c2)C(Oc2ccc(Cl)cc2Cl)CC3)c1 (stereo not given)", "melting point": "155 to 156 °C"}
{"MOLECULE": "COc1c(CC#N)c2c(c3c1OC(C)(C)C3)C(c1ccccc1)=NC(C)(C)C2", "melting point": "95 to 96 °C"}
{"MOLECULE": "Brc1cc2c(cc1Br)Sc1ccccc1S2", "melting point": "160 to 161 °C"}
{"MOLECULE": "OC[C@@H]1Cc2ccccc2CN1C(=S)Nc1cccnc1", "melting point": "192 °C"}
{"MOLECULE": "CCN1CCN(c2ccnc3c(NC(=O)c4c(Cl)cccc4Cl)cccc23)C1=O", "melting point": "249 to 253 °C"}

Query: Consider the molecule Cn1nc(OC(c2ccccc2)c2ccccc2)c(=O)nc1Cl and give its measured melting point.
Reply: 182 to 184 °C

Query: What about this molecule? COC(=O)C1=C(C)NC(C)=C(C(=O)c2ccco2)C1c1ccccc1[N+](=O)[O-] (stereo not given)
Reply: 90 to 92 °C

Query: Also need Cc1oc(-c2ccccc2)nc1CCOc1ccc(C[C@@H](C(=O)O)N2CCN(S(=O)(=O)c3ccccc3)CC2)cc1 , thanks.
Reply: 180 to 182 °C

Query: Param item: OC1c2ccccc2CCC12CCCCN2 (stereo not given)
Reply: 125 to 127 °C

Query: Another molecule to look at: COC(=O)c1ccc(-c2ccc3cc(OCc4ccccc4)c(C45CC6CC(CC(C6)C4)C5)cc3c2)cc1
Reply: 170 to 173 °C

---

MEASURED METRIC: melting point

Record excerpt, results attached:
{"SMI": "CC(C)(C)c1cc(I)c(O)c(CNS(=O)(=O)O)c1", "melting point": "172 to 180 °C"}
{"SMI": "Cn1c2cc(O)c(O)cc2c2cc(O)c(O)cc21", "melting point": "> 270 °C"}
{"SMI": "CCn1c(Nc2cc(Cl)ccc2Cl)nc(C(F)(F)F)cc1=O", "melting point": "167 to 168 °C"}

Query: Would you kindly share the measured melting point for CC1(C)OCc2c1nc1ccccc1c2Cl ?
Reply: 108 to 110 °C

Query: Ok, now CNS(=O)(=O)c1ccc2ccccc2c1
Reply: 137 °C

Query: Now the same for C/C(=C\C(=O)O)c1cnn(C)c1-c1ccc(F)cc1
Reply: 123 to 124 °C
